- assayProcedure: Mouse pharmacokinetics after oral gavage, plasma drug concentration by LC-MS/MS (C57BL/6)
- Assay type: in vivo, C57bl/6 mice
- protocolConditions: mouse, plasma, C57BL/6, 60 mg/kg, female mice
property: log10(Cmax) (log10 of the value in nM)
Plainly stated, the numbers are log10 of Cmax given in nM.

Cc1cc(NC(=O)[C@H](CCN)NC(=O)[C@@H]2Cc3ccccc3CN2C(=O)CCC(=O)N2CCCC(C)(C)C2)ccc1Cl
3.49
CC1(C)CCCCN1C(=O)CCC(=O)N1Cc2ccccc2C[C@H]1C(=O)N[C@@H](CCN)C(=O)Nc1ccc(Cl)c(Cl)c1F
2.78
Cc1c(Cl)ccc(NC(=O)[C@H](CCN)NC(=O)[C@@H]2Cc3ccccc3CN2C(=O)CCC(=O)N2CCCC23CCC3)c1Cl
3.83
NCC[C@H](NC(=O)[C@@H]1Cc2ccccc2CN1C(=O)CCC(=O)N1CCCC12CCC2)C(=O)Nc1ccc(Cl)c(Cl)c1F
3.45
Cc1cc(NC(=O)[C@H](CCN)NC(=O)[C@@H]2Cc3ccccc3CN2C(=O)CCC(=O)N2CCCC(C)(C)C2)cc(C)c1Cl
3.63

Given the entry `Cc1cc(NC(=O)[C@H](CCN)NC(=O)[C@@H]2Cc3ccccc3CN2C(=O)CCC(=O)N(C)CC(C)(C)C)ccc1Cl` , report its measured log10(Cmax).
2.78

Attribution: patent US11040954B1
